molecular target: Voltage-dependent N-type calcium channel subunit alpha-1B (Homo sapiens, UniProt Q00975); assay: Agonist activity at N-type Cav2.2 channel expressed in tsA201 cell assessed as calcium current by whole-cell patch clamp method
Sequence (Q00975 whole entry): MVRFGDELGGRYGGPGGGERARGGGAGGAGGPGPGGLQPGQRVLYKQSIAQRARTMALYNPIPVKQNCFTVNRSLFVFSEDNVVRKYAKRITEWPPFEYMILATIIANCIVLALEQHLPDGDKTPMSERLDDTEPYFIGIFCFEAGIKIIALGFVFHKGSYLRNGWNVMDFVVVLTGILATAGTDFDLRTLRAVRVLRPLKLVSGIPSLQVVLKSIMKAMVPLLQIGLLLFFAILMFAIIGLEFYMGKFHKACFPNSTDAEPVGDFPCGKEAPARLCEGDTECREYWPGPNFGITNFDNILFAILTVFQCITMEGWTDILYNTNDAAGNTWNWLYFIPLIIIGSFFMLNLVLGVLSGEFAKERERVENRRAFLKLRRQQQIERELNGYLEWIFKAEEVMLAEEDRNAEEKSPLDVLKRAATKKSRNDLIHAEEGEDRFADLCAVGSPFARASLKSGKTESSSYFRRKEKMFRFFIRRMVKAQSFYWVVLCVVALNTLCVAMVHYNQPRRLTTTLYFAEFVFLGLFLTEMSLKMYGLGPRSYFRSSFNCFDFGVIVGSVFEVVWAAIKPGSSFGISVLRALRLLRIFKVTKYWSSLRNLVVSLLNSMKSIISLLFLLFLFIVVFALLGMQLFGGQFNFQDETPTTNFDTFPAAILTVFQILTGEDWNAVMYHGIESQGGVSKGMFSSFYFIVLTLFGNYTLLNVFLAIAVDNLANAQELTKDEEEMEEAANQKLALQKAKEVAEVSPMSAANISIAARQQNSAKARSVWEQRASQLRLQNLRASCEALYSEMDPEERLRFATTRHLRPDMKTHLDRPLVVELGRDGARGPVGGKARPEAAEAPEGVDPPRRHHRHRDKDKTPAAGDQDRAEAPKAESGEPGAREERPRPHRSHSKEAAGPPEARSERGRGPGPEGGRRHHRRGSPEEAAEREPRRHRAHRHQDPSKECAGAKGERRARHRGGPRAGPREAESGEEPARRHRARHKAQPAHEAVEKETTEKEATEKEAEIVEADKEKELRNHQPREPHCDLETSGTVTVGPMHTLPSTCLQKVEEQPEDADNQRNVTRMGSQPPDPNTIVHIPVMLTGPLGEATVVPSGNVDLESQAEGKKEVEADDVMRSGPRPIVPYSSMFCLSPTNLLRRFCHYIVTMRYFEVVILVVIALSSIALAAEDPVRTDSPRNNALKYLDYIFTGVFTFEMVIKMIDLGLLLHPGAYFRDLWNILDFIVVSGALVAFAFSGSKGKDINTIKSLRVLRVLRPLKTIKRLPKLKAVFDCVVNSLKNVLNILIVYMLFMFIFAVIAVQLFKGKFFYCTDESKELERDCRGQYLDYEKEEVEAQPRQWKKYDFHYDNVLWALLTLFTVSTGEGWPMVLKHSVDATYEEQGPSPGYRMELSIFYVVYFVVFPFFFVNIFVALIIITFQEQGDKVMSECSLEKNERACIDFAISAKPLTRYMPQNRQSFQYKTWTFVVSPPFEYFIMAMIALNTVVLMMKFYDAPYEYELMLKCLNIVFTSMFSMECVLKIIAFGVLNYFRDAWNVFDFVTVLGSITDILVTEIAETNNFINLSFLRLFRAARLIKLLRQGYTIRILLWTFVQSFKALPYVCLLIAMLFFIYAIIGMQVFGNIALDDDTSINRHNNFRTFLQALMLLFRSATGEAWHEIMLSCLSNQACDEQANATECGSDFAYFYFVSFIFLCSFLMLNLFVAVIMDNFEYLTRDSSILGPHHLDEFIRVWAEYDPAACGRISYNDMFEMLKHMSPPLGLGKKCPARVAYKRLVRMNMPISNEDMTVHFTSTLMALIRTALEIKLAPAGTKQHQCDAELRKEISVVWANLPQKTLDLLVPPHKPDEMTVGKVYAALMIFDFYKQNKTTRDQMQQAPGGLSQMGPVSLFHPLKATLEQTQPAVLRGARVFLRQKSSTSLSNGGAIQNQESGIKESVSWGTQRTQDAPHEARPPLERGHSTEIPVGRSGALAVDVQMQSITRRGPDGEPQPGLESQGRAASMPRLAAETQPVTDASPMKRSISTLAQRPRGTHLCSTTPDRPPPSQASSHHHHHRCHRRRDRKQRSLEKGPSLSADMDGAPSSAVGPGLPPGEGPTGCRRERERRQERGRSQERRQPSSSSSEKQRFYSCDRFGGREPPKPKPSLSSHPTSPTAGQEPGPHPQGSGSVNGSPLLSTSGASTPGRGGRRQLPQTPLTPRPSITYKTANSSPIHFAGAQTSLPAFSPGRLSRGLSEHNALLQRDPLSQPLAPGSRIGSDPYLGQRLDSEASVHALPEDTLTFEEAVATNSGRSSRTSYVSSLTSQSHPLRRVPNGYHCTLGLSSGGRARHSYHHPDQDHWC
pEC50: −log10 of the molar value.
In this section we review reported pEC50 values for a set of compounds.

Fill blank: measured pEC50 of the compound CC[C@H](CO)Nc1nc(NCCc2ccccc2)c2ncn(C(C)C)c2n1 is ____.
< 4.00

Next record, please: CCCn1cnc2c(NC(c3ccccc3)c3ccccc3)nc(N[C@H](CC)CO)nc21
< 4.00

Next record, please: CC[C@H](CO)Nc1nc(N(Cc2ccccc2)Cc2ccccc2)c2ncn(C(C)C)c2n1
< 3.00

Next record, please: CC[C@H](CO)Nc1nc(NCc2ccc(-c3ccccc3)cc2)c2ncn(C(C)C)c2n1
< 4.00

Next record, please: CC(C)n1cnc2c(NCc3ccccc3)nc(NCCCO)nc21
< 3.00

Next record, please: CC[C@H](CO)Nc1nc(NCc2ccccc2O)c2ncn(C(C)C)c2n1
4.10

More entries:
Fill blank: measured pEC50 of the compound CC[C@H](CO)Nc1nc(NCc2ccccc2)n2ncc(C(C)C)c2n1 is ____.
> 4.00

Next record, please: CC[C@H](CO)Nc1nc(Nc2ccccc2)c2ncn(C)c2n1
< 4.00

Next record, please: CC[C@H](CO)Nc1nc(NC(c2ccccc2)c2ccccc2)c2ncn(C(C)C)c2n1
< 4.00

Next record, please: CC[C@H](CO)Nc1nc(NCC2CC2)c2ncn(C(C)C)c2n1
< 4.00

Next record, please: CCCn1cnc2c(NCc3ccc(-c4ccccc4)cc3)nc(N[C@H](CC)CO)nc21
< 4.00

Next record, please: CCCn1cnc2c(Nc3ccccc3)nc(N[C@H](CC)CO)nc21
< 4.00

Next record, please: CC[C@H](CO)Nc1nc(NCc2ccc(C)s2)c2ncn(C)c2n1
4.52

# credit: ChEMBL document CHEMBL2203054
